Taken from patent US20250388565A1.

# system name: ERα protein (HiBiT-tagged) in ESR1_HiBiT KI MCF7 cells (Homo sapiens)
# Sequence (P03372 1-595): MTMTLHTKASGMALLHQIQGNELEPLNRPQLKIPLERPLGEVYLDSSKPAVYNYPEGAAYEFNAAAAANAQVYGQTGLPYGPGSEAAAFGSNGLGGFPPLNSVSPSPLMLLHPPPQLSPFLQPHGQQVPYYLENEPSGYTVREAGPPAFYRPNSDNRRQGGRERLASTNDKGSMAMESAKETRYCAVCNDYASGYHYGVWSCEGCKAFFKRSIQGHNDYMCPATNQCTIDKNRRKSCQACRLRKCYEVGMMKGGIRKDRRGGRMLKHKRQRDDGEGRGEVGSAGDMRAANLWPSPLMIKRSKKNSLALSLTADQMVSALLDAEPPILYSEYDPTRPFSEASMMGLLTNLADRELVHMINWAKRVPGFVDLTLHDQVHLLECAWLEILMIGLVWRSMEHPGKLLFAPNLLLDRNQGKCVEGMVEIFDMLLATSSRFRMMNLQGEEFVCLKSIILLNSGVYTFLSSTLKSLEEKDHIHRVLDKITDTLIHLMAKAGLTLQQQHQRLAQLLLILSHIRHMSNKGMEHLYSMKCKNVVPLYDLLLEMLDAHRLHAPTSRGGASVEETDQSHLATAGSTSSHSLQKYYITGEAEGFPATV
# experiment description: Nano Glo HiBiT Lytic Degradation Assay
# Format: cell-based
# condition set: 6 hours with compound, 14-point dose response 1:3, bell-shape curve fit, half-maximal effect of first Hill model, read-out: MCF7 ESR1 HiBiT - (DC50)
Listed here are compounds together with their documented log10 of DC50.
Values reflect log10 of reported DC50 (nM).

>>> observed_result("Cn1nc([C@H]2CCC(=O)NC2=O)c2ccc(N3CCN(CC4CCN(c5ccc([C@@H]6c7ccc(O)cc7CO[C@@H]6c6ccccc6)cc5)CC4)CC3)cc21 (single isomer, unassigned)")
-0.41
>>> observed_result("O=C1CC[C@H](N2Cc3cc(N4CCN(CC5CCN(c6cc(F)c([C@H]7c8ccc(O)cc8CC[C@H]7C7CCCCC7)c(F)c6)CC5)CC4)ccc3C2=O)C(=O)N1")
2.78
>>> observed_result("O=C1CC[C@H](N2Cc3cc(N4CCN(CC5CCN(c6ccc([C@@H]7c8ccc(O)cc8CO[C@@H]7c7ccc8c(c7)CCC8)cc6)CC5)CC4)ccc3C2=O)C(=O)N1")
-0.62
>>> observed_result("O=C1CC[C@H](N2Cc3cc(N4CCN(CC5CCN(c6ccc([C@H]7c8ccc(O)cc8C(F)(F)C[C@H]7c7ccccc7)cn6)CC5)CC4)ccc3C2=O)C(=O)N1")
1.00
>>> observed_result("C[C@H]1O[C@@H](C2CCCCC2)[C@@H](c2ccc(N3CCC(CN4CCN(c5ccc6c(c5)CN([C@H]5CCC(=O)NC5=O)C6=O)CC4)CC3)cc2)c2ccc(O)cc21")
1.64
>>> observed_result("O=C1CC[C@H](N2Cc3cc(N4CCN(CC5CCN(c6ccc([C@@H]7c8ccc(O)cc8CO[C@H]7C7CCCCC7)cc6)CC5)CC4)ccc3C2=O)C(=O)N1")
-0.21
>>> observed_result("CC(C)C[C@@H]1CC(F)(F)c2cc(O)ccc2[C@@H]1c1ccc(N2CCC(CN3CCN(c4ccc5c(c4)CN([C@H]4CCC(=O)NC4=O)C5=O)CC3)CC2)cc1")
1.15
>>> observed_result("CC[C@H]1CCc2cc(O)ccc2[C@H]1c1ccc(N2CCC(CN3CCN(c4ccc5c(c4)CN([C@H]4CCC(=O)NC4=O)C5=O)CC3)CC2)cc1 (single isomer, unassigned)")
2.52

Please report the recorded log10 of DC50 for O=C1CC[C@H](N2Cc3cc(N4CCN(CC5CCN(c6ccc([C@H]7c8ccc(O)cc8C(F)(F)C[C@H]7c7ccccc7)cc6F)CC5)CC4)ccc3C2=O)C(=O)N1 .
0.95

What do you have for O=C1CCC(N2Cc3cc([C@H]4CCN(CC5CCN(c6ccc([C@@H]7c8ccc(O)cc8CC[C@@H]7c7ccccc7)cc6)CC5)CC4(F)F)ccc3C2=O)C(=O)N1 (single isomer, unassigned) ?
0.78

---

# system name: ERα protein (HiBiT-tagged) in ESR1_HiBiT KI MCF7 cells (Homo sapiens)
# experiment description: Nano Glo HiBiT Lytic Degradation Assay
# Format: cell-based
# condition set: 6 hours with compound, 14-point dose response 1:3, bell-shape curve fit, half-maximal effect of first Hill model, read-out: MCF7 ESR1 HiBiT - (DC50)
Listed here are compounds together with their documented DC50.
Report the figure in nM without appending any unit label.

Some compounds with recorded DC50:
>>> observed_result("C[C@@H]1O[C@H](C2CCCCC2)[C@H](c2ccc(N3CCC(CN4CCN(c5ccc6c(c5)CN([C@H]5CCC(=O)NC5=O)C6=O)CC4)CC3)cc2)c2ccc(O)cc21 (single isomer, unassigned)")
0.79
>>> observed_result("O=C1CC[C@H](N2Cc3cc(N4CCN(CC5CCN(c6ccc([C@@H]7c8ccc(O)cc8CO[C@@]78CCCc7ccccc78)cc6)CC5)CC4)ccc3C2=O)C(=O)N1")
0.21

Next compound, DC50 to be filled in.
Please report the recorded DC50 for O=C1CCC(c2ccc(N3CC[C@]4(CCN(CC5CCN(c6ccc([C@@H]7c8ccc(O)cc8C(F)(F)C[C@@H]7c7ccccc7)cc6)CC5)C4)C3)cc2)C(=O)N1 (single isomer, unassigned) .
0.51

---

# system name: ERα protein (HiBiT-tagged) in ESR1_HiBiT KI MCF7 cells (Homo sapiens)
# experiment description: Nano Glo HiBiT Lytic Degradation Assay
# Assay type: cell-based
# condition set: 6 hours with compound, 14-point dose response 1:3, bell-shape curve fit, half-maximal effect of first Hill model, read-out: MCF7 ESR1 HiBiT - (DC50)
Listed here are compounds together with their documented DC50.
Report the figure in nM without appending any unit label.

Some compounds with recorded DC50:
>>> observed_result("Cc1cc(F)ccc1[C@@H]1OCc2cc(O)ccc2[C@@H]1c1ccc(N2CCC(CN3CCN(c4ccc5c(c4)CN([C@H]4CCC(=O)NC4=O)C5=O)CC3)CC2)cc1")
27
>>> observed_result("Cn1nc([C@@H]2CCC(=O)NC2=O)c2ccc(N3CCN(CC4CCN(c5ccc([C@@H]6c7ccc(O)cc7CO[C@@H]6c6ccccc6)cc5)CC4)CC3)cc21 (single isomer, unassigned)")
0.28

DC50 of C[C@@H]1CCc2cc(O)ccc2[C@@H]1c1ccc(N2CCC(CN3CCN(c4ccc5c(c4)CN([C@H]4CCC(=O)NC4=O)C5=O)CC3)CC2)cc1 on ERα protein (HiBiT-tagged) in ESR1_HiBiT KI MCF7 cells (Homo sapiens)?
3300

---

# system name: ERα protein (HiBiT-tagged) in ESR1_HiBiT KI MCF7 cells (Homo sapiens, UniProt P03372)
# Sequence (P03372 1-595): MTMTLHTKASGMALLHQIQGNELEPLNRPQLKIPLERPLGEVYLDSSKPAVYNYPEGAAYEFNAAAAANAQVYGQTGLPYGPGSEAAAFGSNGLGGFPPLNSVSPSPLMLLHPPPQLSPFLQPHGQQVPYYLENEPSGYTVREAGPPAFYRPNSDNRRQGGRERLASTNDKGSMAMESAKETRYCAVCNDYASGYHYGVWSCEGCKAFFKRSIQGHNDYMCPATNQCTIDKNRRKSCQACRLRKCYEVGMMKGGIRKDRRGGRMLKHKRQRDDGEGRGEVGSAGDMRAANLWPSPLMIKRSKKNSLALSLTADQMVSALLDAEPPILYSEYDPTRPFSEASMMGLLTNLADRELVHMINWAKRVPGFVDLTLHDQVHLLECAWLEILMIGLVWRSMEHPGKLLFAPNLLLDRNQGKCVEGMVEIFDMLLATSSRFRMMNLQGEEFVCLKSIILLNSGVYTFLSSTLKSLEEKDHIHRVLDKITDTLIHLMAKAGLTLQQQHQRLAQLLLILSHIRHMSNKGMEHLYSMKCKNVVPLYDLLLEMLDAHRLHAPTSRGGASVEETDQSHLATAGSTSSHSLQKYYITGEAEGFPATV
# experiment description: Nano Glo HiBiT Lytic Degradation Assay
# Assay type: cell-based
# condition set: 6 hours with compound, 14-point dose response 1:3, bell-shape curve fit, half-maximal effect of first Hill model, read-out: MCF7 ESR1 HiBiT - (DC50)
observable: DC50

Some compounds with recorded DC50:
>>> observed_result("CC(C)(O)[C@@H]1CCc2cc(O)ccc2[C@@H]1c1ccc(N2CCC(CN3CCN(c4ccc5c(c4)CN([C@H]4CCC(=O)NC4=O)C5=O)CC3)CC2)cc1")
"≥ 10 µM"
>>> observed_result("O=C1CC[C@H](N2Cc3cc(N4CCN(CC5CCN(c6ccc([C@H]7c8ccc(O)cc8CC[C@H]7c7ccc(F)cc7)cc6)CC5)CC4)ccc3C2=O)C(=O)N1")
"≥ 10 µM"

Next compound, DC50 to be filled in.
DC50 of Cc1cc(F)cc(C)c1[C@@H]1CCc2cc(O)ccc2[C@@H]1c1ccc(N2CCC(CN3CCN(c4ccc5c(c4)CN([C@H]4CCC(=O)NC4=O)C5=O)CC3)CC2)cc1 on ERα protein (HiBiT-tagged) in ESR1_HiBiT KI MCF7 cells (Homo sapiens, UniProt P03372)?
≥ 10 µM
